SYSTEM_NAME: Dual specificity mitogen-activated protein kinase kinase 1 (Homo sapiens) (UniProt Q02750)
Sequence (Q02750 whole entry): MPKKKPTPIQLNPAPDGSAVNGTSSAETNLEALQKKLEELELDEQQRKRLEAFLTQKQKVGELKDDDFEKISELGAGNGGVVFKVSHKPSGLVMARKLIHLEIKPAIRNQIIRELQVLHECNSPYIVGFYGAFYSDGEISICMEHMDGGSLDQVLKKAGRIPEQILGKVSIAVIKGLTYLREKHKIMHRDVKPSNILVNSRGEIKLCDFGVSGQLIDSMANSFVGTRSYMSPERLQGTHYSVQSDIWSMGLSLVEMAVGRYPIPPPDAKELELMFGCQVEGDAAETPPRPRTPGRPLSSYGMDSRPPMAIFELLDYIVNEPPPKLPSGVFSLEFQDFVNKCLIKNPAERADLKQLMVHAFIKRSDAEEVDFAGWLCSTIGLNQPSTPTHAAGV
TEST_DETAILS: Inhibition of MAP2K1 (unknown origin) at 50 nM by Z'LYTE screening method relative to control
// inhibition lookup, one value per entry
State just the number; it will be interpreted in %.

Field: example entries. Status: answers known.
MOLECULE | MEASURED_QUANTITY | DATA_VALUE
O=C1c2ccccc2CN1c1nc(NC2CCCC2)c2nc[nH]c2n1 | inhibition | 1
O=C1c2ccccc2CN1c1nc(NC2CCCCC2)c2nc[nH]c2n1 | inhibition | 4
CCN(CC)CCCC(C)Nc1nc(-n2[se]c3ccccc3c2=O)nc2[nH]cnc12 (configuration not stated) | inhibition | 3

Item under review: `O=c1c2ccccc2[se]n1-c1nc(N[C@@H]2C[C@H]3CC[C@@H]2C3)c2nc[nH]c2n1` . Reported inhibition?
2

Next record, please: `O=c1c2ccccc2[se]n1-c1nc(Nc2ccccc2)c2nc[nH]c2n1`
0

// next record `O=C1c2ccccc2CN1c1nc(N[C@H]2CC[Se]C2)c2nc[nH]c2n1`
3

Quick one: `CCCNc1nc(-n2[se]c3ccccc3c2=O)nc2[nH]cnc12`
2

Try this molecule too: `O=c1c2ccccc2[se]n1-c1nc(N[C@H]2CC[Se]C2)c2nc[nH]c2n1`
10

Same question for `O=c1c2ccccc2[se]n1-c1nc(N[C@H]2CCOC2)c2nc[nH]c2n1` please.
2

Next entry: CCN(CC)CCCC(C)Nc1nc(N2Cc3ccccc3C2=O)nc2[nH]cnc12 (configuration not stated)
5

Subsequent entry: `C[C@@H]1[C@H]2C[C@@H](C[C@H]1Nc1nc(-n3[se]c4ccccc4c3=O)nc3[nH]cnc13)C2(C)C`
5

Also `O=c1c2ccccc2[se]n1-c1nc(NC2CCCCC2)c2nc[nH]c2n1` , if possible.
6
